B1: Glucocorticoid receptor, residues 419 to 494; numbered along this chain, P04150 (parent)
chain: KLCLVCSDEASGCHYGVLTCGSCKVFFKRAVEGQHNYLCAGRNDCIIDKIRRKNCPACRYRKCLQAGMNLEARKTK

- Variants of: B1
- assayInfo: abundance fitness (aPCA) (normalised: wild type 0, dead -1); higher = more abundant; growth selection in yeast, the domain comes from the species named
- conditionsUsed: Homo sapiens
Decide by abundance fitness: equal to or exceeding -0.02 means satisfied, less means not satisfied.

| mutations | label |
| --- | --- |
| E71D | satisfied |
| H35I | not satisfied |
| F26E | not satisfied |
| L4T | satisfied |
| K24G | satisfied |
| D44Q | not satisfied |
| V5I | satisfied |
| R59Q | not satisfied |
| R42N | satisfied |
| A66V | satisfied |
| G41M | satisfied |
| C20F | not satisfied |
| K28G | not satisfied |
| H35Q | not satisfied |
| A72E | satisfied |
| L4E | satisfied |
| V5E | not satisfied |
| T75I | not satisfied |
| A10T | not satisfied |
| Y15D | not satisfied |
| P56C | satisfied |
| H35R | not satisfied |
| V31M | not satisfied |
| G12W | not satisfied |
| Y60S | not satisfied |
| N43S | not satisfied |
| K49M | not satisfied |
| M68N | not satisfied |
| V31C | satisfied |
| E9I | not satisfied |
| I50Y | not satisfied |
| Q65R | not satisfied |
